Parameter: pIC50. Scope: all listed entries.
Target: 5-hydroxytryptamine receptor 1A (Rattus norvegicus)
Sequence (P19327 whole entry): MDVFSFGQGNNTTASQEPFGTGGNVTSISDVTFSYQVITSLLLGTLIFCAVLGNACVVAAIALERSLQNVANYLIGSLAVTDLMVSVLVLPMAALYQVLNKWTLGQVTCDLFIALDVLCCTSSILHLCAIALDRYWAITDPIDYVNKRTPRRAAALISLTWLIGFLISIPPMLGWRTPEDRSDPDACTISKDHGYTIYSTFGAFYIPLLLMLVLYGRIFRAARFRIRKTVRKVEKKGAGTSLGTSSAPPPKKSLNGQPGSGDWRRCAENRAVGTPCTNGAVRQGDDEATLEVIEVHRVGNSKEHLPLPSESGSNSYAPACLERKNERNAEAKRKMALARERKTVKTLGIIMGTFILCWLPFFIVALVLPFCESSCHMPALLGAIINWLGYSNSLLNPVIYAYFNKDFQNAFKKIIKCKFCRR
Assay type: cell membranes, CHO-K1, Membrane
Conditions: read-out: IC50
pIC50: −log10 of the molar value.
Measured Metric: pIC50

[[record]]
molecule = "CN(C)CCC=C1c2ccccc2CCc2ccccc21"
measured_metric = "pIC50"
readout_value = 5.70

[[record]]
molecule = "CN1CCC(=C2c3ccccc3CC(=O)c3sccc32)CC1"
measured_metric = "pIC50"
readout_value = 5.60

[[record]]
molecule = "CCCCCCCCNC(C)C(O)c1ccc(SC(C)C)cc1 (stereo not given)"
measured_metric = "pIC50"
readout_value = 6.26

[[record]]
molecule = "Clc1ccc(COC(Cn2ccnc2)c2ccc(Cl)cc2Cl)c(Cl)c1 (stereo not given)"
measured_metric = "pIC50"
readout_value = 4.94

[[record]]
molecule = "CC(C)C[C@H]1C(=O)N2CCC[C@H]2[C@]2(O)O[C@](NC(=O)[C@@H]3C=C4c5cccc6[nH]cc(c56)C[C@H]4N(C)C3)(C(C)C)C(=O)N12"
measured_metric = "pIC50"
readout_value = 8.58

